- System: Mab 4009-77-20 (ECACC 8808/2502)
- procedure_summary: two-step competitive ELISA (BSA-conjugated hapten on plate), anti-hydroxyatrazine MAb
- Format: binding, Maus
- run_conditions: inhibitor concentration for 50 % inhibition in competitive ELISA
Some molecules, each annotated with its measured I 50 ng/ml (a).

## Input Which I 50 ng/ml (a) value is on record for CNc1nc(O)nc(NC(C)C)n1 [OH-Desmetryn, Hydroxydesmetryn] ?
## Output 0,7 ng/ml

## Input Which I 50 ng/ml (a) value is on record for `CCNc1nc(NC(C)C)nc(SC)n1` ?
## Output >1000 ng/mL

## Input Which I 50 ng/ml (a) value is on record for CC(C)Nc1nc(O)nc(NC(C)C)n1 [OH-Propazin, Hydroxypropazin] ?
## Output 0,6 ng/ml

## Input Which I 50 ng/ml (a) value is on record for `CC(C)Nc1nc(Cl)nc(NC(C)C)n1` ?
## Output >1000 ng/mL
